The measured values listed here are drawn from paper PMC8901119.

- ASSAY: Stability of peptides in HepG2 whole cell lysate
- Type: in vitro ADME
- CONDITIONS_USED: human, HepG2 lysate, 5 mins, read-out: % intact peptide
Non-standard residues stand in square brackets, D forms with d. Residues, ends and D or L forms follow the SMILES beside them. Ala(7-MeO-coumarin-4-yl) = COc1ccc2c(C[C@H](N)C(=O)O)cc(=O)oc2c1
MEASURED_QUANTITY: remaining at 5 min, 20 μM (%)
Response body: numeric value in %, unit text excluded.

stdin: May I ask what remaining at 5 min, 20 μM has been recorded for COc1ccc2c(C[C@H](NC(=O)[C@H](C)NC(=O)[C@H](CCCNC(=N)N)NC(=O)[C@H](Cc3ccccc3)NC(=O)[C@H](CC(C)C)NC(=O)[C@H](Cc3c[nH]cn3)NC(=O)[C@@H](N)Cc3cc(=O)oc4cc(OC)ccc34)C(=O)O)cc(=O)oc2c1 [R1A, μHLFRAμ] (H-[Ala(7-MeO-coumarin-4-yl)]HLFRA[Ala(7-MeO-coumarin-4-yl)]-OH) ?
stdout: 46
